- system.name: benzodiazepine receptor (benzodiazepine site on the GABAA receptor complex)
- test.description: Benzodiazepine radioligand (3H-flunitrazepam) binding assay
- settings: read-out: Benzodiazepine receptor binding Ki; 3H-flunitrazepam, brain membrane homogenates, 90 minutes at 4° C.; tissue species of the tabulated values not stated
pKi: −log10 of the molar value.
readout.type: pKi

{"columns": ["compound", "recorded.result"],
 "data": [
  ["COC(=O)CC[C@@H]1N=C(c2ccccn2)c2cc(Br)ccc2-n2c(C)cnc21 [Example 1c-8]", "7.30 to 9.00"],
  ["COC(=O)CC[C@@H]1N=C(c2ccccc2F)c2cc(Cl)ccc2N=C1NCCO [Example 1b-9]", "6.00 to 7.00"],
  ["COC(=O)CC[C@@H]1N=C(c2ccccn2)c2cc(Br)ccc2NC1=O [Example 1-10]", "7.00 to 7.29"],
  ["CC(C)OC(=O)CC[C@@H]1N=C(c2ccccc2F)c2cc(Cl)ccc2NC1=O [Example 1-21]", "7.30 to 9.00"]
]}

* * *

- system.name: benzodiazepine receptor (benzodiazepine site on the GABAA receptor complex)
- test.description: Benzodiazepine radioligand (3H-flunitrazepam) binding assay
- settings: read-out: Benzodiazepine receptor binding Ki; 3H-flunitrazepam, brain membrane homogenates, 90 minutes at 4° C.; tissue species of the tabulated values not stated
pKi: −log10 of the molar value.

{"columns": ["compound", "pKi"],
 "data": [
  ["COC(=O)CC[C@@H]1N=C(c2ccccn2)c2cc(Cl)ccc2NC1=O", "6.00 to 7.00"],
  ["COC(=O)CC[C@@H]1N=C(c2ccccc2F)c2cc(Cl)ccc2N=C1NCc1ccccc1", "6.00 to 7.00"],
  ["COC(=O)CC[C@@H]1N=C(c2ccccc2F)c2cc(Cl)ccc2-n2cc(COC(C)(C)C)nc21", "7.30 to 9.00"],
  ["CC(C)COC(=O)CC[C@@H]1N=C(c2ccccn2)c2cc(Cl)ccc2NC1=O", "6.00 to 7.00"],
  ["COC(=O)CC[C@@H]1N=C(c2ccccn2)c2cc(Cl)ccc2-n2c(C)cnc21", "7.00 to 7.29"],
  ["COC(=O)CNC1N=C(c2ccccc2Cl)c2cc(Cl)ccc2NC1=O (centres unmarked)", "7.00 to 7.29"],
  ["COC(=O)CC[C@@H]1N=C(c2ccccn2)c2cc(Cl)ccc2-n2c(CO)cnc21", "6.00 to 7.00"],
  ["CCCCOC(=O)CC[C@@H]1N=C(c2ccccn2)c2cc(Cl)ccc2NC1=O", "6.00 to 7.00"]
]}

* * *

Documented pKi across a set of compounds
- system.name: benzodiazepine receptor (benzodiazepine site on the GABAA receptor complex)
- test.description: Benzodiazepine radioligand (3H-flunitrazepam) binding assay
- settings: read-out: Benzodiazepine receptor binding Ki; 3H-flunitrazepam, brain membrane homogenates, 90 minutes at 4° C.; tissue species of the tabulated values not stated
pKi: −log10 of the molar value.
readout.type: pKi

{"columns": ["compound", "readout.type", "recorded.result"],
 "data": [
  ["COC(=O)CCNC1N=C(c2ccccc2Cl)c2cc(Cl)ccc2NC1=O (centres unmarked)", "pKi", "7.30 to 9.00"],
  ["COC(=O)CC[C@@H]1N=C(c2ccccc2F)c2cc(Cl)ccc2N=C1NCCc1c[nH]cn1", "pKi", "6.00 to 7.00"],
  ["CCNC1=Nc2ccc(Cl)cc2C(c2ccccc2F)=N[C@H]1CCC(=O)OC", "pKi", "6.00 to 7.00"],
  ["CCOC(=O)CC[C@@H]1N=C(c2ccccn2)c2cc(Cl)ccc2NC1=O", "pKi", "6.00 to 7.00"],
  ["COC(=O)CC[C@@H]1N=C(c2ccccc2Cl)c2cc(Cl)ccc2NC1=O", "pKi", "7.30 to 9.00"],
  ["Cc1nnc2n1-c1ccc(Cl)cc1C(c1ccccc1F)=N[C@H]2CCC(=O)OCC(C)C", "pKi", "7.30 to 9.00"],
  ["CCOC(=O)C[C@@H]1N=C(c2ccccc2F)c2cc(Cl)ccc2NC1=O", "pKi", "7.30 to 9.00"],
  ["CCCCOC(=O)CC[C@@H]1N=C(c2ccccc2F)c2cc(Cl)ccc2NC1=O", "pKi", "6.00 to 7.00"]
]}

* * *

- system.name: benzodiazepine receptor (benzodiazepine site on the GABAA receptor complex)
- test.description: Benzodiazepine radioligand (3H-flunitrazepam) binding assay
- settings: read-out: Benzodiazepine receptor binding Ki; 3H-flunitrazepam, brain membrane homogenates, 90 minutes at 4° C.; tissue species of the tabulated values not stated
pKi: −log10 of the molar value.

{"columns": ["molecule", "pKi"],
 "data": [
  ["COC(=O)CC[C@@H]1N=C(c2ccccc2F)c2cc(Cl)ccc2N=C1NCC(C)C", "< 6.00"],
  ["COC(=O)CC[C@@H]1N=C(c2ccccc2F)c2cc(Cl)ccc2-n2cncc21", "6.00 to 7.00"],
  ["COC(=O)CC[C@@H]1N=C(c2ccccc2F)c2cc(Cl)ccc2-n2c(C)cnc21", "7.30 to 9.00"],
  ["COC(=O)CC[C@@H]1N=C(c2ccccc2F)c2cc(Cl)ccc2-n2c1cnc2C (racemic)", "7.30 to 9.00"],
  ["O=C(CC[C@@H]1N=C(c2ccccc2F)c2cc(Cl)ccc2NC1=O)OCc1ccccc1 [Example 1-5]", "7.30 to 9.00"],
  ["CNC1=Nc2ccc(Br)cc2C(c2ccccc2F)=N[C@H]1CCC(=O)OC", "7.30 to 9.00"],
  ["CCCOC(=O)CC[C@@H]1N=C(c2ccccn2)c2cc(Cl)ccc2NC1=O", "6.00 to 7.00"],
  ["COC(=O)CC[C@@H]1N=C(c2ccccc2F)c2cc(Cl)ccc2-n2cc(CO)nc21", "7.30 to 9.00"],
  ["COC(=O)CC[C@@H]1N=C(c2ccccn2)c2cc(Cl)ccc2-n2cc(C)nc21", "7.00 to 7.29"],
  ["COC(=O)CC[C@@H]1N=C(c2ccccc2F)c2cc(Cl)ccc2N(C)C1=O", "7.30 to 9.00"]
]}

* * *

- system.name: benzodiazepine receptor (benzodiazepine site on the GABAA receptor complex)
- test.description: Benzodiazepine radioligand (3H-flunitrazepam) binding assay
- settings: read-out: Benzodiazepine receptor binding Ki; 3H-flunitrazepam, brain membrane homogenates, 90 minutes at 4° C.; tissue species of the tabulated values not stated
Documented Ki across a set of molecules
readout.type: Ki

{"columns": ["molecule", "recorded.result"],
 "data": [
  ["COC(=O)CC[C@@H]1N=C(c2ccccc2F)c2cc(Cl)ccc2NC1=O [Example 1-2]", "51 to 100 nM"],
  ["COC(=O)CC[C@@H]1N=C(c2ccccc2Cl)c2cc(Cl)ccc2-n2c(C)nnc21 [Example 1c-14]", "1 to 50 nM"],
  ["COC(=O)CCC[C@@H]1N=C(c2ccccc2F)c2cc(Cl)ccc2NC1=O [Example 1-8]", "1 to 50 nM"],
  ["COC(=O)CC[C@@H]1N=C(c2ccccc2F)c2cc(Cl)ccc2-n2c(CO)cnc21 [Example 1c-5]", "1 to 50 nM"],
  ["CNC1=Nc2ccc(Cl)cc2C(c2ccccc2F)=N[C@H]1CCC(=O)OC [Example 1b-1]", "51 to 100 nM"],
  ["COC(=O)CC[C@@H]1N=C(c2ccccc2F)c2cc(Br)ccc2NC1=O [Example 1-3]", "1 to 50 nM"],
  ["COC(=O)CC[C@H]1N=C(c2ccccc2F)c2cc(Cl)ccc2NC1=O [Example 1-4]", "101 to 1000 nM"],
  ["COC(=O)CC[C@@H]1N=C(c2ccccc2F)c2cc(Cl)ccc2-n2cc(C)nc21 [Example 1c-3]", "1 to 50 nM"]
]}
